Test system: EKVX NSCLC
Experiment: NCI tumour cell line growth inhibition, 48 h
measured quantity: TGI

Problem: Enter TGI (test system EKVX NSCLC) for `Cn1c2ccccc2c2c(-c3ccccc3)cc3c(c21)C(=O)C=CC3=O`
Result: > 8.39 µM

Problem: Enter TGI (test system EKVX NSCLC) for C=C1CCC2C3(C)COC(c4ccc(N(C)C)cc4)OC3CCC2(C)C1C/C=C1/C(=O)OCC1O (stereo not drawn)
Result: 21.9 µM

Problem: Enter TGI (test system EKVX NSCLC) for `CCOP(=O)(OCC)/C(C#N)=C/c1ncc[nH]1`
Result: > 100 µM

Problem: Enter TGI (test system EKVX NSCLC) for O=C(O)C(/C=C/c1ccccc1)c1ccccc1 (stereo not drawn)
Result: > 100 µM

Problem: Enter TGI (test system EKVX NSCLC) for O=C1c2cc(Cl)ccc2-n2cnnc2C2CSCN12 (stereo not drawn)
Result: > 100 µM

Problem: Enter TGI (test system EKVX NSCLC) for OC1(c2cccs2)c2cccc(Cl)c2C(O)(c2cccs2)c2c(Cl)cccc21 (stereo not drawn)
Result: > 100 µM

Problem: Enter TGI (test system EKVX NSCLC) for `C[C@H]1[C@H](C)CC[C@]2(CO)CC[C@]3(C)C(=CC[C@@H]4[C@@]5(C)CCCNC(C)(C)[C@@H]5CC[C@]43C)[C@H]12`
Result: 3.29 µM

Problem: Enter TGI (test system EKVX NSCLC) for `O=[N+]([O-])c1cc(C(F)(F)F)cc([N+](=O)[O-])c1CCl`
Result: 13.4 µM

Problem: Enter TGI (test system EKVX NSCLC) for Oc1c(C(Nc2cccc3cccnc23)c2ccccc2)ccc2cccnc12 (stereo not drawn)
Result: > 100 µM

Problem: Enter TGI (test system EKVX NSCLC) for `CN(CCCn1c2c(c3ccccc3c1=O)C(=O)c1ccccc1-2)CCCn1c2c(c3ccccc3c1=O)C(=O)c1ccccc1-2`
Result: > 100 µM

Problem: Enter TGI (test system EKVX NSCLC) for `Cc1nn2c(/C=C3\C(=O)Nc4ccc(Cl)cc43)c(C)nc2s1`
Result: > 100 µM

Problem: Enter TGI (test system EKVX NSCLC) for COC(=O)C1(C)CCC(c2ccc(C)cc2)=C(CC(=O)O)C1 (stereo not drawn)
Result: > 100 µM

Problem: Enter TGI (test system EKVX NSCLC) for `Cc1c(C(N)=O)sc2c1C(=O)N(Cc1ccccc1)C1=NN=C(c3ccc(Cl)cc3)CN12`
Result: 29.8 µM

Problem: Enter TGI (test system EKVX NSCLC) for `C/C(CC(=O)Nc1ccc([N+](=O)[O-])cc1)=N\NC(N)=O`
Result: > 100 µM

Problem: Enter TGI (test system EKVX NSCLC) for `C=C(C)C(=O)Nc1ccc(NC(C)C)cc1`
Result: > 100 µM

Problem: Enter TGI (test system EKVX NSCLC) for `CC(C)(C)OC(=O)N1CCN(CCn2cc(C(F)(F)F)c3c(Cl)ncnc32)CC1`
Result: 25.7 µM

Problem: Enter TGI (test system EKVX NSCLC) for `CCOc1ccccc1N1C(=O)C(=O)C(c2nc3ccccc3o2)C(=O)C1=O`
Result: > 100 µM

Problem: Enter TGI (test system EKVX NSCLC) for `COc1cnc2c(c1)C(=O)c1c-2n(CCCn2ccnc2)c(=O)c2cc(F)ccc12`
Result: > 100 µM

Problem: Enter TGI (test system EKVX NSCLC) for `CP1(=O)CCCCC1`
Result: > 100 µM

Problem: Enter TGI (test system EKVX NSCLC) for COc1cc2c(c(OC)c1OC)-c1ccc(SC)c(=O)cc1C(CO)C2 (stereo not drawn)
Result: > 100 µM

Problem: Enter TGI (test system EKVX NSCLC) for `COC1=C(OC)C(=O)C(Cc2c(Cl)nc3sc(C)cn23)=C(C)C1=O`
Result: 35.6 µM

Problem: Enter TGI (test system EKVX NSCLC) for `CCOc1ccc2c(c1)[n+]([O-])c(-c1ccc(Cl)cc1)c(N)[n+]2[O-]`
Result: > 100 µM

Problem: Enter TGI (test system EKVX NSCLC) for `CN(C)CCCSc1nc2ccccc2[nH]1`
Result: > 100 µM

Problem: Enter TGI (test system EKVX NSCLC) for Fc1ccc2c(c1)C1=NN(c3ccccc3)C(F)C1CO2 (stereo not drawn)
Result: 16.4 µM

Problem: Enter TGI (test system EKVX NSCLC) for CCCCCCCCCCCCCCCCCCNc1ccn(C2OC(COP(=O)(O)OCC3OC(n4cc(F)c(=O)[nH]c4=O)CC3O)C(O)C2O)c(=O)n1 (stereo not drawn)
Result: > 100 µM

Problem: Enter TGI (test system EKVX NSCLC) for `O=C1/C(=C\c2ccc(O)cc2)CCC/C1=C/c1ccc(Cl)c(Cl)c1`
Result: 20 µM

Problem: Enter TGI (test system EKVX NSCLC) for `COc1cc2c(cc1C)NC(=O)/C2=C/c1ccccn1`
Result: 6.88 µM

Problem: Enter TGI (test system EKVX NSCLC) for COC1(OC)c2no[n+]([O-])c2CCC1O (stereo not drawn)
Result: > 100 µM

Problem: Enter TGI (test system EKVX NSCLC) for `CCN(CC)CCCCNc1c2ccccc2[n+](C)c2c1[nH]c1ccccc12`
Result: 3.16 µM

Problem: Enter TGI (test system EKVX NSCLC) for `COC(=O)/C=C(/C)n1nc2ccccc2n1`
Result: > 100 µM

Problem: Enter TGI (test system EKVX NSCLC) for `CCOc1ccc(NC(=O)C(=O)CC(=O)c2sc(NNC(C)=O)nc2C)cc1`
Result: > 100 µM

Problem: Enter TGI (test system EKVX NSCLC) for CC(=O)OCC1=C(CCC#N)N2C(=O)C(NC(=O)Cc3cccs3)C2S(=O)C1 (stereo not drawn)
Result: > 100 µM

Problem: Enter TGI (test system EKVX NSCLC) for COc1ccc(C(=O)OC2C(OC3C(O)COC(O[C@H]4C[C@H]5[C@@H]6CC=C7C[C@@H](O)CC[C@]7(C)[C@H]6CC[C@]5(C)[C@H]4[C@H](C)C(=O)CCC(C)C)C3OC(N)=O)OCC(O)C2O)cc1 (stereo partly drawn)
Result: 4.1 µM

====

Tested on: MDA-N
Assay: NCI tumour cell line growth inhibition, 48 h
measured quantity: TGI

Problem: Tell me measured TGI for `CC(C)=CCC/C(C)=C/CC/C(C)=C/CC/C(C)=C/C=C/C=C(\C)CC/C=C(\C)CC/C=C(\C)CCC=C(C)C` please.
Result: > 100 µM

Problem: Tell me measured TGI for `O=C([O-])C[n+]1ccccc1` please.
Result: > 100 µM

Problem: Tell me measured TGI for CCCCCCCCCCCCCCCCCCNc1ccn(C2OC(COP(=O)(O)OCC3OC(n4cc(F)c(=O)[nH]c4=O)CC3O)C(O)C2O)c(=O)n1 (configuration not stated) please.
Result: > 100 µM

Problem: Tell me measured TGI for `O=C(Nc1ccc(Cl)cc1)NS(=O)(=O)c1coc2cc(F)ccc2c1=O` please.
Result: > 100 µM

Problem: Tell me measured TGI for COc1ccc(-c2c(C#N)c(N)n(C3OCC(OC(C)=O)C(OC(C)=O)C3OC(C)=O)c(=S)c2C#N)cc1 (configuration not stated) please.
Result: > 100 µM

Problem: Tell me measured TGI for `COCCOC(=O)c1c(C)n([O-])c2cc(Cl)c(Cl)cc2[n+]1=O` please.
Result: > 100 µM

Problem: Tell me measured TGI for CN(CCCCCl)P(=O)(OCc1ccc([N+](=O)[O-])o1)OC[C@H]1O[C@@H](n2cc(F)c(=O)[nH]c2=O)C[C@@H]1O (some centres not stated) please.
Result: 33.3 µM

Problem: Tell me measured TGI for CN1CCOC(c2ccc(Cl)cc2)O1 (configuration not stated) please.
Result: > 100 µM

Problem: Tell me measured TGI for Cc1cccc(C)c1NC(=O)C(C#N)C1=C(Cl)C(=O)c2ccccc2C1=O (configuration not stated) please.
Result: 28.6 µM

Problem: Tell me measured TGI for CCCCCCCCCCCCCCCCCCNC(=O)C(N)Cc1ccc(OCc2ccccc2)cn1 (configuration not stated) please.
Result: 49.2 µM

Problem: Tell me measured TGI for O=C(NC1=NCC(CN2CCN(c3ccccc3)CC2)O1)Nc1ccccc1 (configuration not stated) please.
Result: > 100 µM

Problem: Tell me measured TGI for CNc1ncnc2c1ncn2C1C=CC(COS(N)(=O)=O)C1 (configuration not stated) please.
Result: > 100 µM

====

Provide the recorded TGI for the entries that follow.
System: NCI-H226 lung
Experiment: NCI tumour cell line growth inhibition, 48 h

Problem: Tell me measured TGI for `CP1(=O)CCCCC1` please.
Result: > 100 µM

Problem: Tell me measured TGI for `O=C(Nc1ccc(Cl)cc1)c1cc2cc(N=Nc3ccccc3Cl)ccc2oc1=O` please.
Result: 46.9 µM

Problem: Tell me measured TGI for `CC(C)(C)n1cc(-c2ccnc(NCCCNS(=O)(=O)c3ccc(C(F)(F)F)cc3)c2)c(-c2cccc(O)c2)n1` please.
Result: 5.71 µM

Problem: Tell me measured TGI for COC(=O)C1(CCC(C)=O)CCCCCC1=O (stereo unspecified) please.
Result: > 100 µM

Problem: Tell me measured TGI for `Cc1nn2c(/C=C3\C(=O)Nc4ccc(Cl)cc43)c(C)nc2s1` please.
Result: > 100 µM

Problem: Tell me measured TGI for `CCOC(=O)c1cnc2oc3ccc(O)cc3c2c1C` please.
Result: > 100 µM

Problem: Tell me measured TGI for `COC(=O)/C=C(/C)n1nc2ccccc2n1` please.
Result: > 100 µM

Problem: Tell me measured TGI for COc1cc2c(c(O)c1OC)-c1c(cc(OC)c(OC)c1OC)CC(C)C(C)C2 (stereo unspecified) please.
Result: > 100 µM

Problem: Tell me measured TGI for CC[C@]1(Cc2ccc(OC)c(OC)c2)C=[N+]([O-])O[C@H](OC2CCCC2(c2ccccc2)c2ccccc2)[C@@H]1OC(=O)c1ccccc1 (stereo partly specified) please.
Result: > 100 µM

Problem: Tell me measured TGI for `Cc1csc2[n+]1C(=O)/C(=C\c1ccc([N+](=O)[O-])cc1)S2` please.
Result: 26.9 µM

Problem: Tell me measured TGI for CC1CCC(NC(=O)N(CCCl)N=O)CC1 (stereo unspecified) please.
Result: 150 µM

Problem: Tell me measured TGI for CCC(C)(CC(C)(C)C(=O)NCC(=O)NC(Cc1ccccc1)C(=O)NC(Cc1ccccc1)C(=O)NCC(=O)NC1CC(OC2CC(O)(C(=O)CO)Cc3c(O)c4c(c(O)c32)C(=O)c2c(OC)cccc2C4=O)OC(C)C1O)C(=O)NCC(C)O (stereo unspecified) please.
Result: > 150 µg/mL

Problem: Tell me measured TGI for `C/C(CC(=O)Nc1ccc([N+](=O)[O-])cc1)=N\NC(N)=O` please.
Result: > 100 µM

Problem: Tell me measured TGI for Fc1ccc2c(c1)C1=NN(c3ccccc3)C(F)C1CO2 (stereo unspecified) please.
Result: 19.1 µM

Problem: Tell me measured TGI for `CNS(=O)(=O)NN(C)S(=O)(=O)c1ccccc1` please.
Result: > 100 µM

Problem: Tell me measured TGI for `Cn1cc(C(=O)NCCC(=N)N)cc1NC(=O)C1=[N+](C)C=C(NC(=O)c2cccc(C(=O)NC3=CC(C(=O)Nc4cc(C(=O)NCCC(=N)N)cn4C)=[N+](C)C3)c2)C1` please.
Result: > 100 µM

Problem: Tell me measured TGI for `COc1cc2ccc(/C=C\[N+](=O)[O-])cc2cc1OC` please.
Result: 76.5 µM

Problem: Tell me measured TGI for `Cc1c(C(N)=O)sc2c1C(=O)N(Cc1ccccc1)C1=NN=C(c3ccc(Cl)cc3)CN12` please.
Result: 11.8 µM

Problem: Tell me measured TGI for `C(=C\c1cccs1)/c1cccc(/C=C/c2cccs2)n1` please.
Result: > 100 µM

Problem: Tell me measured TGI for C=C1CCC2C3(C)COC(c4ccc(N(C)C)cc4)OC3CCC2(C)C1C/C=C1/C(=O)OCC1O (stereo unspecified) please.
Result: 18.2 µM

Problem: Tell me measured TGI for `COc1cc(/C=C/C(=O)c2cccc(Nc3nc(Nc4ccccc4)nc(Nc4ccccc4)n3)c2)cc(OC)c1OC` please.
Result: > 81 µM

The measured values listed here are drawn from PubChem BioAssay (NCI).
